FYI, the data here is from PubChem BioAssay (NCI).

Assay: NCI Yeast Anticancer Drug Screen. Data for the rad50 strain (AID 155);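 note: 0% = growth of vehicle-only cultures of the same strain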
Settings: S. cerevisiae rad50 strain growth inhibition; at 50.0 µM; stronger effect = higher value
About 79,000 compounds went through this panel and 15% of them were active in at least one assay; those are over-represented in the sample as a whole.
# growth inhibition listing for each entry below
measurement-type: growth inhibition (%)

[[record]]
compound = "OCC1OC(Oc2ccccc2)C(O)C(O)C1O (stereo unspecified)"
readout_value = 8.15

[[record]]
compound = "CC(C)C1CCC(C)(C=O)C1 (stereo unspecified)"
readout_value = -19.7

[[record]]
compound = "CC12NC(=O)NC1(C)NC(=O)N2 (stereo unspecified)"
readout_value = -8.85

[[record]]
compound = "CCOC(=O)c1[nH]c(CC(=O)O)c(C(=O)OC)c1C"
readout_value = 8.25

[[record]]
compound = "O=c1[nH]c(=S)c2[nH]c(=O)n(-c3ccccc3)c2[nH]1"
readout_value = -15.3

[[record]]
compound = "Cc1ccc(Cl)c(NC(=O)c2ccccc2Cl)c1"
readout_value = 6.2

[[record]]
compound = "CC(=O)OC12C(C)=C(C)C(=O)N1c1ccccc1N2C(C)=O (stereo unspecified)"
readout_value = -20.8

[[record]]
compound = "O=c1cc(O)n2ncnc2[nH]1"
readout_value = -4.3

[[record]]
compound = "Clc1ccc(Cl)c2c(Br)cncc12"
readout_value = 37.4

[[record]]
compound = "CCC1C(C#N)=C(O)NC(O)=C1C#N"
readout_value = 25.8

[[record]]
compound = "COc1cc(/C=C/c2ccnnc2)cc(OC)c1OC"
readout_value = -9.2

[[record]]
compound = "Cc1cc(=O)c2c(=O)n(-c3ccccc3)[nH]c2[nH]1"
readout_value = -34.7

[[record]]
compound = "Cc1ccc(C(N)=O)cc1"
readout_value = 20

[[record]]
compound = "CC1(C)OC2OC(C(O)COC(=O)c3ccccc3)C(Cl)C2O1 (stereo unspecified)"
readout_value = 26.6

[[record]]
compound = "c1nnco1"
readout_value = -4.2

[[record]]
compound = "COc1ccccc1C(=O)N(C)c1ccc(Cl)c(C(=O)OC(C)C)c1"
readout_value = 30.9

[[record]]
compound = "C[C@H](N)C(=O)/C=C/c1ccccc1"
readout_value = -18.8

[[record]]
compound = "NC(N)=Nc1ccccc1OC1OC(CO)C(O)C(O)C1O (stereo unspecified)"
readout_value = -12.4

[[record]]
compound = "CCC1(COC(NC(=O)c2ccccc2)(C(F)(F)F)C(F)(F)F)COC1"
readout_value = -14.2

[[record]]
compound = "COc1ccc(CCN2C(CC(=O)c3ccccc3)CCCC2CC(=O)c2ccccc2)cc1 (stereo unspecified)"
readout_value = -29.6

[[record]]
compound = "O=S(=O)(c1ccccc1)C1CCCCC1I (stereo unspecified)"
readout_value = 45.9

[[record]]
compound = "CCOC(=O)C1CN(CCc2ccccc2)CCC1=O (stereo unspecified)"
readout_value = 30.9

[[record]]
compound = "N#CCCNC1CCCCC1"
readout_value = 2.95

[[record]]
compound = "S=C(N1CCN(c2cccc(Cl)c2)CC1)N1CCN(c2cccc(Cl)c2)CC1"
readout_value = -7.4

[[record]]
compound = "CC1CN=C(N(C(=O)Nc2ccc(F)c(Cl)c2)c2ccccc2)S1 (stereo unspecified)"
readout_value = -1.55

[[record]]
compound = "Cn1cnnc1Sc1c([N+](=O)[O-])nc(-c2ccc([N+](=O)[O-])cc2)n1C"
readout_value = -3.5

